# Target system: Aster-B (Homo sapiens)
# Construct: -B(364-552); GST (PreScission-cleavable) (N, cleaved yes); made in house; host or cells: E. coli OverExpress C41
# Sequence (Q3KR37 364-552): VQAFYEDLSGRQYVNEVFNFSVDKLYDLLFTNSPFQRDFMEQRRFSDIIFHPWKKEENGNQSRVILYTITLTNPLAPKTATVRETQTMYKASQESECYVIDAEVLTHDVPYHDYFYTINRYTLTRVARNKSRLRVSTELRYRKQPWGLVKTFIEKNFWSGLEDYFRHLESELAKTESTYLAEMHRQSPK
# Experiment description: Fluorescence polarisation (FP) competition with NBD-cholesterol, Aster-B
# Format: binding
# Run conditions: single dose, Dose = 10 µM
Readout type: Aster-B (FP) inhibition (%)

* C[C@]12CC[C@@H](O)C[C@H]1CCc1c2nc2ccccc2c1-c1ccccc1 [Compound 2b] | 2.5
* CCOC(=O)c1ccc2[nH]c3c(c2c1)CC[C@@H]1C[C@H](O)CC[C@]31C [Compound 10k] | -4
* C[C@]12CC[C@@H](O)C[C@H]1CCc1sc(-c3ccc(F)cc3)nc12 [Compound 8e] | 8
* C[C@]12CC[C@@H](O)C[C@H]1CCc1c2[nH]c2ccc(I)cc12 [Compound 10h] | 32
